Exercise: for every item that follows, state its recorded CRF1R EC50.
Biological target: CRF1R
Experiment: cell-based or functional assay
Ends that are not written are not given here.

**Query** Give the measured CRF1R EC50 of ZGPPISIDLPTWLLRKMIEIEKQEKEKQQAANNRLLLDTI (C-terminal amide) [SEQ ID NO 41] .
**Result** > 1000 nM

**Query** Give the measured CRF1R EC50 of IVLSLDVPIGLLQILLEQTKADQLAQQAHSNRKLLDIA-NH2 [SEQ ID NO 159] .
**Result** > 100 nM

**Query** Give the measured CRF1R EC50 of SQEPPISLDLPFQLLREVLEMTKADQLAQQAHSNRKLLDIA-NH2 [SEQ ID NO 91] .
**Result** 100 nM

**Query** Give the measured CRF1R EC50 of DNPSLSIDLPFHLLRTLLELARTQSQRERAEQNAIIFASV-NH2 [SEQ ID NO 185] .
**Result** 358 nM

**Query** Give the measured CRF1R EC50 of IVLSLDVPIGLLQILLEQARAEAAREQATTNARILARV-NH2 [SEQ ID NO 122] .
**Result** 1000 nM

**Query** Give the measured CRF1R EC50 of ZGIVLSLDVPIGLLRKMIEIEKQEKEKQQAANNRLLLDTI (C-terminal amide) [SEQ ID NO 153] .
**Result** > 100 nM
